assay: Cytotoxicity against dog MDCK cells after 48 hrs by CellTiter 96 AQueous non-radioactive cell proliferation assay; type: cell-based, Canis lupus familiaris
Can you tell me CC50 at 48 h for the items I'm about to list?

Look at this compound and give its reported CC50 at 48 h. CC(C)OCCCNC(=O)c1csc(Nc2ccc(Cl)c(Cl)c2)n1
100 µM

Consider the compound shown here: O=C(NCCCN1CCOCC1)c1csc(Nc2cc(Cl)c(Cl)c(Cl)c2)n1 What is its recorded CC50 at 48 h?
41 µM

# get_value(readout='CC50 at 48 h', item= O=C(NCCCN1CCOCC1)c1csc(Nc2ccc(Cl)c(Cl)c2)n1 )
35.6 µM

Returns the measured CC50 at 48 h for the input compound. Input: CCOCCCNC(=O)c1csc(Nc2cc(Cl)c(Cl)c(Cl)c2)n1
> 100 µM

Value lookup for CC50 at 48 h; key = CCOCCCNC(=O)c1csc(Nc2cc(C)c(Cl)c(C)c2)n1
> 100 µM

Item CC(C)OCCCNC(=O)c1csc(Nc2cc(Cl)c(Cl)c(Cl)c2)n1 has what recorded CC50 at 48 h?
> 100 µM

# get_value(readout='CC50 at 48 h', item= O=C(NCCCN1CCOCC1)c1csc(Nc2ccc(Cl)cc2)n1 )
> 100 µM

Please look up its CC50 at 48 h: Cc1cc(Nc2nc(C(=O)NCCCOC(C)C)cs2)cc(C)c1Cl
> 100 µM

// CC50 at 48 h lookup, key: CCOCCCNC(=O)c1csc(Nc2cc(F)c(Cl)c(F)c2)n1
> 100 µM

I have this compound here, CC(C)OCCCNC(=O)c1csc(Nc2ccc(Cl)cc2)n1 , and I need its recorded CC50 at 48 h.
> 100 µM

----------
assay: Inhibition of nucleoprotein trimerization in recombinant Influenza A virus A/WSN/1933 (H1N1) infected in MDCK cells assessed as reduction in reduction in E339(carboxyl group)-R416(guanidino group) interaction by measuring virus-induced cytopathic effect after 48 hrs by CellTiter 96 AQueous non-radioactive cell proliferation assay; type: cell-based
experimentalReadout: pEC50
// pEC50 here means minus log10 of the molar concentration (mol/L)

Recorded pEC50 of CC(C)OCCCNC(=O)c1csc(Nc2ccc(Cl)c(Cl)c2)n1 , please.
6.15

Value lookup for pEC50; key = CC(C)OCCCNC(=O)c1csc(Nc2ccc(Cl)c(F)c2)n1
6.30

Param item = Cc1cc(Nc2nc(C(=O)NCCCOC(C)C)cs2)ccc1Cl ; retrieve measured pEC50.
5.92

What value of pEC50 has been reported for the following compound? CCOCCCNC(=O)c1csc(Nc2ccc(Cl)c(F)c2)n1
6.22

Fill in: pEC50 of O=C(NCCCN1CCOCC1)c1csc(Nc2ccc(Cl)cc2)n1 is ___
5.51

Please report the recorded pEC50 for O=C(NCCCN1CCOCC1)c1csc(Nc2cc(Cl)c(Cl)c(Cl)c2)n1 .
5.82

Dear colleague, I am looking for the recorded pEC50 of the following compound: CCOCCCNC(=O)c1csc(Nc2cc(Cl)c(Cl)c(Cl)c2)n1
6.40

Please give the measured pEC50 for this compound: CC(C)OCCCNC(=O)c1csc(Nc2cc(Cl)c(Cl)c(Cl)c2)n1
6.22

What does the data say about its pEC50? Entry: Cc1cc(Nc2nc(C(=O)NCCCN3CCOCC3)cs2)cc(C)c1Cl
5.51

Fill in: pEC50 of CCOCCCNC(=O)c1csc(Nc2ccc(Cl)c(C)c2)n1 is ___
6.00

Item under review: O=C(NCCCN1CCOCC1)c1csc(Nc2ccc(Cl)c(F)c2)n1 . Reported pEC50?
5.49

Entry CCOCCCNC(=O)c1csc(Nc2ccc(Cl)cc2)n1 : reported pEC50 = ?
5.89

pEC50 lookup needed for CC(C)OCCCNC(=O)c1csc(Nc2ccc(Cl)cc2)n1 , thanks.
5.92

Using the record for Cc1cc(Nc2nc(C(=O)NCCCN3CCOCC3)cs2)ccc1Cl , report its pEC50.
5.43

Entry CCOCCCNC(=O)c1csc(Nc2ccc(Cl)c(Cl)c2)n1 : reported pEC50 = ?
6.70

Form field: reported pEC50 of CC(C)OCCCNC(=O)c1csc(Nc2cc(F)c(Cl)c(F)c2)n1
6.96

I'd like to know its pEC50. The compound in question is CCOCCCNC(=O)c1csc(Nc2cc(C)c(Cl)c(C)c2)n1
5.64

Looking for the measured pEC50 of O=C(NCCCN1CCOCC1)c1csc(Nc2ccc(Cl)c(Cl)c2)n1 , can you help?
5.57

Record request: pEC50 value, item CCOCCCNC(=O)c1csc(Nc2cc(F)c(Cl)c(F)c2)n1
6.92

Quick check: pEC50 of O=C(NCCCN1CCOCC1)c1csc(Nc2cc(F)c(Cl)c(F)c2)n1 ?
6.10

Fill in the blank: the reported pEC50 of Cc1cc(Nc2nc(C(=O)NCCCOC(C)C)cs2)cc(C)c1Cl is ____.
5.89
